Test system: mice bearing PSMA-expressing LNCAP cancer xenografts
Test Method Notes: Biodistribution of 68Ga-labeled compounds
Assay type: in vivo
Measurement Setup: 3 h post-injection
Note to self: use yes only for Lungs uptake readings below 1 % ID/g; a reading exactly at 1 % ID/g still gets no.

Threshold test, Lungs uptake < 1 % ID/g: O=C([O-])CN1CCN(CC(=O)[O-])CCN(CC(=O)NCCCC[C@H](NC(=O)CNC(=O)CCCc2ccccc2)C(=O)NC[C@H]2CC[C@H](C(=O)N[C@@H](Cc3ccc4ccccc4c3)C(=O)NCCCC[C@H](NC(=O)N[C@@H](CCC(=O)O)C(=O)O)C(=O)O)CC2)CCN(CC(=O)[O-])CC1.[68Ga+3] [^68Ga-HTK03056]
no

Lookup O=C([O-])CN1CCN(CC(=O)[O-])CCN(CC(=O)NCCCC[C@H](NC(=O)CNC(=O)CCCc2ccc(Cl)cc2)C(=O)NC[C@H]2CC[C@H](C(=O)N[C@@H](Cc3ccc4ccccc4c3)C(=O)NCCCC[C@H](NC(=O)N[C@@H](CCC(=O)O)C(=O)O)C(=O)O)CC2)CCN(CC(=O)[O-])CC1.[68Ga+3] [^68Ga-HTK03055]
no

Lookup O=C([O-])CN1CCN(CC(=O)[O-])CCN(CC(=O)NCCCC[C@H](NC(=O)CNC(=O)CCCc2ccc(F)cc2)C(=O)NC[C@H]2CC[C@H](C(=O)N[C@@H](Cc3ccc4ccccc4c3)C(=O)NCCCC[C@H](NC(=O)N[C@@H](CCC(=O)O)C(=O)O)C(=O)O)CC2)CCN(CC(=O)[O-])CC1.[68Ga+3] [^68Ga-HTK03085]
no

Lookup O=C([O-])CN1CCN(CC(=O)[O-])CCN(CC(=O)NCCCC[C@H](NC(=O)CNC(=O)CCCc2ccc(Br)cc2)C(=O)NC[C@H]2CC[C@H](C(=O)N[C@@H](Cc3ccc4ccccc4c3)C(=O)NCCCC[C@H](NC(=O)N[C@@H](CCC(=O)O)C(=O)O)C(=O)O)CC2)CCN(CC(=O)[O-])CC1.[68Ga+3] [^68Ga-HTK03058]
no

Lookup Nc1ccc(CCCC(=O)NCC(=O)N[C@@H](CCCCNC(=O)CN2CCN(CC(=O)[O-])CCN(CC(=O)[O-])CCN(CC(=O)[O-])CC2)C(=O)NC[C@H]2CC[C@H](C(=O)N[C@@H](Cc3ccc4ccccc4c3)C(=O)NCCCC[C@H](NC(=O)N[C@@H](CCC(=O)O)C(=O)O)C(=O)O)CC2)cc1.[68Ga+3] [^68Ga-HTK03087]
yes

Lookup O=C([O-])CN1CCN(CC(=O)[O-])CCN(CC(=O)NCCCC[C@H](NC(=O)CNC(=O)CCc2ccccc2)C(=O)NC[C@H]2CC[C@H](C(=O)N[C@@H](Cc3ccc4ccccc4c3)C(=O)NCCCC[C@H](NC(=O)N[C@@H](CCC(=O)O)C(=O)O)C(=O)O)CC2)CCN(CC(=O)[O-])CC1.[68Ga+3] [^68Ga-HTK03082]
yes

Lookup O=C([O-])CN1CCN(CC(=O)[O-])CCN(CC(=O)NCC2CCC(C(=O)NC(Cc3c4ccccc4cc4ccccc34)C(=O)NCCCCC(NC(=O)NC(CCC(=O)O)C(=O)O)C(=O)O)CC2)CCN(CC(=O)[O-])CC1.[68Ga+3] (stereo not shown) [^68Ga-HTK03041]
no
